// CC50 lookup, one value per entry
Test system: H1-HeLa cells
assayProtocol: Cytotoxicity (CC50) in mock-infected H1-HeLa cells, XTT dye reduction
Format: cell-based, human
conditionLabel: line of HRV-25

Recorded results for 2 molecules are shown here.
Cc1cc(C(=O)Nc2cccn([C@@H](Cc3ccc(F)c(F)c3)C(=O)N[C@H](/C=C/C(=O)OC3CCCCC3)C[C@@H]3CCNC3=O)c2=O)no1 [Compound 54]
> 10 µM
CCC(C(=O)N[C@H](/C=C/C(=O)OCC(C)(C)C)C[C@@H]1CCNC1=O)n1cccc(NC(=O)c2cc(C)on2)c1=O (relative stereo) [Compound 42]
> 10 µM

// below: CC50 requested for another molecule
[in] State the recorded CC50 for this entry: C#CC[C@@H](C(=O)N[C@H](/C=C/C(=O)OCC(C)(C)C)C[C@@H]1CCNC1=O)n1cccc(NC(=O)c2cc(C)on2)c1=O (relative stereo) [Compound 32]
[out] > 10 µM

---

Test system: coxsackievirus B2 (CVB2)
assayProtocol: Anticoxsackieviral cell culture assay (EC50), CVB2
Format: cell-based
conditionLabel: Enterovirus B
experimentalReadout: log10 EC50 (log10 of the value in µM)
Give log10 of EC50, with EC50 taken in µM.

C#CC[C@@H](C(=O)N[C@H](/C=C/C(=O)OC(C)(C)C)C[C@@H]1CCNC1=O)n1cccc(NC(=O)c2cc(C)on2)c1=O
-0.67
CCOC(=O)/C=C/[C@H](C[C@@H]1CCNC1=O)NC(=O)[C@H](CC)n1cccc(NC(=O)c2cc(C)on2)c1=O
-1.26
C#CC[C@@H](C(=O)N[C@H](/C=C/C(=O)OCC)C[C@@H]1CCNC1=O)n1cccc(NC(=O)c2cc(C)on2)c1=O
-1.24
C#CC[C@@H](C(=O)N[C@H](/C=C/C(=O)OC1CCC1)C[C@@H]1CCNC1=O)n1cccc(NC(=O)c2cc(C)on2)c1=O
-0.81
Cc1cc(C(=O)Nc2cccn([C@@H](Cc3ccc(F)c(F)c3)C(=O)N[C@H](/C=C/C(=O)OC(C)C)C[C@@H]3CCNC3=O)c2=O)no1
-0.79

[in] Item "CCOC(=O)/C=C/[C@H](C[C@@H]1CCNC1=O)NC(=O)[C@H](Cc1ccc(F)c(F)c1)n1cccc(NC(=O)c2cc(C)on2)c1=O" with coxsackievirus B2 (CVB2) - log10 EC50?
[out] -1.82

---

Test system: coxsackievirus B5 (CVB5)
assayProtocol: Anticoxsackieviral cell culture assay (EC50), CVB5
Format: cell-based
conditionLabel: Enterovirus B
This listing pairs molecules with measured EC50.
Returns: string containing the numeric result and its unit.

Consider the following illustrative entries.
Cc1cc(C(=O)Nc2cccn([C@@H](Cc3ccc(F)c(F)c3)C(=O)N[C@H](/C=C/C(=O)OC(C)C)C[C@@H]3CCNC3=O)c2=O)no1
0.178 µM
C#CC[C@@H](C(=O)N[C@H](/C=C/C(=O)OCC)C[C@@H]1CCNC1=O)n1cccc(NC(=O)c2cc(C)on2)c1=O
0.047 µM

[in] What value of EC50 has been recorded for this entry: "C#CC[C@@H](C(=O)N[C@H](/C=C/C(=O)OC(C)(C)C)C[C@@H]1CCNC1=O)n1cccc(NC(=O)c2cc(C)on2)c1=O"
[out] 0.199 µM

[in] Need EC50, item "C#CC[C@@H](C(=O)N[C@H](/C=C/C(=O)OC1CCC1)C[C@@H]1CCNC1=O)n1cccc(NC(=O)c2cc(C)on2)c1=O"
[out] 0.157 µM

[in] Give its EC50 value. Item: "CCOC(=O)/C=C/[C@H](C[C@@H]1CCNC1=O)NC(=O)[C@H](Cc1ccc(F)c(F)c1)n1cccc(NC(=O)c2cc(C)on2)c1=O"
[out] 0.025 µM

[in] Dear colleague, I am looking for the recorded EC50 of the following molecule: "CCOC(=O)/C=C/[C@H](C[C@@H]1CCNC1=O)NC(=O)[C@H](CC)n1cccc(NC(=O)c2cc(C)on2)c1=O"
[out] 0.018 µM

---

targetOfAssay: Recombinant rhinovirus 3C protease, serotype 14 (Human rhinovirus 14)
Construct: Recombinant rhinovirus 3C proteases; made in house
Sequence (P03303 1538-1719): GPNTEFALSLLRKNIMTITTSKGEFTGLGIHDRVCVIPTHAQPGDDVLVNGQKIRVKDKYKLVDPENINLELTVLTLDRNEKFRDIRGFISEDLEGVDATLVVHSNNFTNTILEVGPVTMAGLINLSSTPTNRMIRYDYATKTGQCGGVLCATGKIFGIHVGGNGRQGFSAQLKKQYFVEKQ
assayProtocol: Inhibition of rhinovirus 3C protease (FRET assay, kobs/[I]), serotype 14
Format: biochemical
conditionLabel: pH 7.6; HRV-14 3C protease; read-out: kobs/[I] (3C protease inhibition activity)
Each item that follows carries a reported kinact/KI.
Write the figure, then the unit, nothing else.

Solved entries (count: 2):
CC[C@@H](C(=O)N[C@H](/C=C/C(=O)OC1CCC1)C[C@@H]1CCNC1=O)n1cccc(NC(=O)c2cc(C)on2)c1=O
170000 M⁻¹ s⁻¹
CCOC(=O)/C=C/[C@H](C[C@@H]1CCNC1=O)NC(=O)[C@H](CC)n1cc(C(F)(F)F)cc(NC(=O)c2cc(C)on2)c1=O
39500 M⁻¹ s⁻¹

Next item in the queue.
[in] Form field: reported kinact/KI of "CC[C@@H](C(=O)N[C@H](/C=C/C(=O)OC1CCCCC1)C[C@@H]1CCNC1=O)n1cccc(NC(=O)c2cc(C)on2)c1=O"
[out] 23000 M⁻¹ s⁻¹

---

Measured CC50 by item
Tested on: H1-HeLa cells
assayProtocol: Cytotoxicity (CC50) in mock-infected H1-HeLa cells, XTT dye reduction
Type: cell-based, human
conditionLabel: HRV-14

Cc1cc(CCCCCOc2c(Cl)cc(C3=NCCO3)cc2Cl)on1 [WIN 54954, reference compound]
> 63 µM
Cc1cc(CCCCCCCOc2ccc(C3=NCCO3)cc2)on1 [WIN 51711, reference compound]
> 60 µM

Continue with the next compound.
[in] I would be grateful if you could share the reported CC50 for Cc1cc(CCCCCCCOc2ccc(C3=N[C@@H](C)CO3)cc2)on1 [WIN 52084, reference compound] .
[out] > 10 µM

---

Recorded EC50 by entry
System: strains of human rhinovirus (HRV)
assayProtocol: Antirhinoviral H1-HeLa cell culture assay (XTT cell protection, EC50), other HRV strains
Type: cell-based, human rhinovirus in H1-HeLa cells
conditionLabel: Human rhinovirus sp., HRV9, H1-HeLa, HRV-9; read-out: EC50

C#CC[C@@H](C(=O)N[C@H](/C=C/C(=O)OC1CCCC1)C[C@@H]1CCNC1=O)n1cccc(NC(=O)c2cc(C)on2)c1=O
219 nM
Cc1cc(C(=O)Nc2cccn([C@@H](Cc3ccc(F)c(F)c3)C(=O)N[C@H](/C=C/C(=O)OC(C)C)C[C@@H]3CCNC3=O)c2=O)no1
109 nM
CCOC(=O)/C=C/[C@H](C[C@@H]1CCNC1=O)NC(=O)[C@@H]1CCc2ccc(NC(=O)c3cc(C)on3)c(=O)n21
121 nM
CC[C@@H](C(=O)N[C@H](/C=C/C(=O)OC(C)(C)C)C[C@@H]1CCNC1=O)n1cccc(NC(=O)c2cc(C)on2)c1=O
593 nM
Cc1cc(C(=O)Nc2cccn([C@@H](Cc3ccc(F)c(F)c3)C(=O)N[C@H](/C=C/C(=O)OC(C)(C)C)C[C@@H]3CCNC3=O)c2=O)no1
151 nM
CC[C@@H](C(=O)N[C@H](/C=C/C(=O)OC1CCCCC1)C[C@@H]1CCNC1=O)n1cccc(NC(=O)c2cc(C)on2)c1=O
516 nM
Cc1cc(C(=O)Nc2cccn([C@@H](Cc3ccc(F)cc3)C(=O)N[C@H](/C=C/C(=O)OC(C)C)C[C@@H]3CCNC3=O)c2=O)no1
162 nM
C#CC[C@@H](C(=O)N[C@H](/C=C/C(=O)OC(C)C)C[C@@H]1CCNC1=O)n1cccc(NC(=O)c2cc(C)on2)c1=O
122 nM

[in] Data request, read-out EC50, for "Cc1cc(C(=O)Nc2cccn([C@@H](Cc3ccc(F)c(F)c3)C(=O)N[C@H](/C=C/C(=O)OC3CCC3)C[C@@H]3CCNC3=O)c2=O)no1"
[out] 47 nM

[in] Request the reported EC50 associated with "C#CC[C@@H](C(=O)N[C@H](/C=C/C(=O)OC(C)(C)C)C[C@@H]1CCNC1=O)n1cccc(NC(=O)c2cc(C)on2)c1=O"
[out] 562 nM

[in] // returns reported EC50 for input "CCOC(=O)/C=C/[C@H](C[C@@H]1CCNC1=O)NC(=O)[C@H](Cc1ccc(F)c(F)c1)n1cccc(NC(=O)c2cc(C)on2)c1=O"
[out] 15 nM

[in] Suppose we examine the compound "Cc1cc(C(=O)Nc2cccn([C@@H](Cc3ccccc3)C(=O)N[C@H](/C=C/C(=O)OC(C)C)C[C@@H]3CCNC3=O)c2=O)no1" ; what EC50 value has been reported?
[out] 196 nM

---

System: strains of human rhinovirus (HRV)
assayProtocol: Antirhinoviral H1-HeLa cell culture assay (XTT cell protection, EC50), other HRV strains
Type: cell-based, human rhinovirus in H1-HeLa cells
conditionLabel: Human rhinovirus sp., HRV25, H1-HeLa, HRV-25; read-out: EC50
experimentalReadout: EC50 (nM)
// note: answer is a bare numeric in nM

C#CC[C@@H](C(=O)N[C@H](/C=C/C(=O)OC1CCCCCC1)C[C@@H]1CCNC1=O)n1cccc(NC(=O)c2cc(C)on2)c1=O
511
C#CC[C@@H](C(=O)N[C@H](/C=C/C(=O)OC1CCCCC1)C[C@@H]1CCNC1=O)n1cccc(NC(=O)c2cc(C)on2)c1=O
515
C#CC[C@@H](C(=O)N[C@H](/C=C/C(=O)OC1CCCC1)C[C@@H]1CCNC1=O)n1cccc(NC(=O)c2cc(C)on2)c1=O
490
CC[C@@H](C(=O)N[C@H](/C=C/C(=O)OC(C)(C)C)C[C@@H]1CCNC1=O)n1cccc(NC(=O)c2cc(C)on2)c1=O
923
CC[C@@H](C(=O)N[C@H](/C=C/C(=O)OC(C)C)C[C@@H]1CCNC1=O)n1cccc(NC(=O)c2cc(C)on2)c1=O
109

[in] Need EC50, item "C#CC[C@@H](C(=O)N[C@H](/C=C/C(=O)OCc1ccccc1)C[C@@H]1CCNC1=O)n1cccc(NC(=O)c2cc(C)on2)c1=O"
[out] 7

[in] Dear colleague, I am looking for the recorded EC50 of the following compound: "CCOC(=O)/C=C/[C@H](C[C@@H]1CCNC1=O)NC(=O)[C@H](Cc1ccc(F)cc1)n1cccc(NC(=O)c2cc(C)on2)c1=O"
[out] 22

[in] // lookup EC50 for "CC[C@@H](C(=O)N[C@H](/C=C/C(=O)OC1CCCCC1)C[C@@H]1CCNC1=O)n1cccc(NC(=O)c2cc(C)on2)c1=O"
[out] 251

[in] Please report the recorded EC50 for "CC[C@@H](C(=O)N[C@H](/C=C/C(=O)OC1CCC1)C[C@@H]1CCNC1=O)n1cccc(NC(=O)c2cc(C)on2)c1=O" .
[out] 42

[in] Recorded EC50 for "Cc1cc(C(=O)Nc2cccn([C@@H](Cc3ccc(F)c(F)c3)C(=O)N[C@H](/C=C/C(=O)OC3CCC3)C[C@@H]3CCNC3=O)c2=O)no1" , please?
[out] 16

[in] Look up EC50 for this compound: "C#CC[C@@H](C(=O)N[C@H](/C=C/C(=O)OC1CCC1)C[C@@H]1CCNC1=O)n1cccc(NC(=O)c2cc(C)on2)c1=O"
[out] 66
